Source: PubChem BioAssay (NCI)

tested on: KM12 colon; experiment: NCI-60 one-dose screen, 48 h (100 = growth as untreated, 0 = no growth, -100 = all killed); details: 10 µM unless noted
The panel holds about 83,000 compounds, 20% with a hit somewhere; the sample as a whole holds those more often.
Answer label 0 if growth is under 80%, and label 1 if it is 80% or more.

Worked examples follow.
{"columns": ["compound", "classification"],
 "data": [
  ["O=C(/C=C/c1ccccc1)c1ccc2ccccc2c1", "label 1"],
  ["CC(C)OC(=O)NNC(=O)c1ccncc1", "label 1"]
]}

Prompt line: Is the recorded value of growth equal to or greater than 80% for this compound? O=[N+]([O-])c1ccccc1C(O)Cc1ccc2ccccc2n1 (stereo not drawn)
Response line: label 1

---

test system: HOP-92 NSCLC; assay: NCI-60 one-dose screen, 48 h; settings: 10 µM unless noted
The panel holds about 83,000 compounds, 20% with a hit somewhere; the sample as a whole holds those more often. Active and inactive are the calls of the source. How the source made its calls: active means growth percent below 10; inactive means the rest.
Use one of these outcomes when replying: yes (1) (active), no (0) (inactive)

Study these solved cases before continuing.
{"columns": ["compound", "measured_target", "classification"],
 "data": [
  ["Clc1ccc(-c2nc(NCCc3ccccc3)nc3c(NCCc4ccccc4)cnn23)cc1", "HOP-92 NSCLC", "no (0)"],
  ["Cn1nnnc1-c1ccc(N)cc1", "HOP-92 NSCLC", "no (0)"],
  ["O=C1Nc2ccccc2/C1=N/N=C/c1c[nH]c2ccccc12", "HOP-92 NSCLC", "no (0)"],
  ["Clc1ccc2c(NCCCN3CCN(c4nc(N5CCOCC5)nc5ccccc45)CC3)ccnc2c1", "HOP-92 NSCLC", "no (0)"],
  ["O=C(NC(=S)Nc1ccc(-c2nc3ccccc3[nH]2)cc1)c1ccc2ccccc2c1", "HOP-92 NSCLC", "yes (1)"]
]}

Prompt line: Dear colleague, could you share the recorded outcome for Cc1nn(Cc2ccccc2)cc1C(=O)Nc1sc2c(c1C(N)=O)CCC(=O)C2 when you have a moment?
Response line: no (0)

Prompt line: Any idea what this test logged for CC(=O)c1sc(-c2ccccc2)cc1N ?
Response line: no (0)

Prompt line: Dear all, I need the recorded test outcome for C#C[C@]1(O)CC[C@H]2[C@@H]3CC=C4c5sc(N=C(N)N)nc5CC[C@]4(C)[C@H]3CC[C@@]21C , thank you.
Response line: no (0)

---

Give measured growth for each item. Keep answers brief.
system: SK-MEL-5 melanoma; assay: NCI-60 one-dose screen, 48 h (100 = growth as untreated, 0 = no growth, -100 = all killed); conditions: 10 µM unless noted
The panel holds about 83,000 compounds, 20% with a hit somewhere; the sample as a whole holds those more often.
Answers are plain numbers, in %.

{"columns": ["compound", "growth, %"],
 "data": [
  ["CCc1nc2ccccc2[nH]1", 110],
  ["COc1ccc(OC)c(Nc2nc3nonc3nc2Nc2cccc(Br)c2)c1", -47.8],
  ["O=C(/C=C/C12c3ccccc3C(c3ccccc31)C1C(=O)NC(=O)C12)c1ccccc1 (centres undefined)", 28.8],
  ["O=C1C2=C(CCN(Cc3ccccc3)C2)N2CCN=C2N1Cc1ccc(F)cc1F", 27.5],
  ["O=C(NCCOCCOCCNc1cccc2c1C(=O)N(C1CCCNC1=O)C2=O)c1cc2c(o1)C(=O)c1ccccc1C2=O (centres undefined)", -98.7]
]}

Give one value of growth per listed compound.
1. CN1CCC(=C2c3ccccc3C=Cc3ccccc32)CC1
2. CCN(CC)CCCNC(=O)c1ccc(N)cc1
3. C=C(CNCCc1ccc(O)cc1)[C@@H]1CC[C@]2(COC3CCCCO3)CC[C@]3(C)[C@H](CC[C@@H]4[C@@]5(C)CCC(N)C(C)(C)[C@@H]5CC[C@]43C)[C@@H]12 (some centres undefined)

Response line:
[68.6, 97.7, -97.9]

Briefly, growth measured for C[C@@H]1C(=O)N(C[C@H](Cc2ccccc2)N(Cc2ccccc2)Cc2ccccc2)[C@]1(Cc1ccccc1)C(=O)OC(C)(C)C : 45.5
